Cited source for all entries: patent US20240247080A1

# Study Target: hGIPR (Homo sapiens)
# Construct: expressed in transfected cells; host or cells: CHO cells carrying a CRE-luciferase reporter gene
# Sequence (P48546 22-466): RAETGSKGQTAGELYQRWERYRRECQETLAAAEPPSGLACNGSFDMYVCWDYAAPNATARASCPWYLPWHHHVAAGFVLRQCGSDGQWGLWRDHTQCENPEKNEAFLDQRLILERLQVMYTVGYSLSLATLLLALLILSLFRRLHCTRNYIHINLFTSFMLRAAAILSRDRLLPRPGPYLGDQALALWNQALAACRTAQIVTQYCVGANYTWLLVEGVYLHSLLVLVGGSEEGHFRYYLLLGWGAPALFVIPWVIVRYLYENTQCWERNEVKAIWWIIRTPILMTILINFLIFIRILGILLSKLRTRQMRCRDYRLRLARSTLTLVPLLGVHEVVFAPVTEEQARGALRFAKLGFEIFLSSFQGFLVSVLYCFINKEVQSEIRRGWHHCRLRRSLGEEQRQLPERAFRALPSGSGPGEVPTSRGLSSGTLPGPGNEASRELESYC
# Assay Summary: hGIPR CreLuc reporter gene assay in 0.5% and 100% plasma
# Format: cell-based
# Experimental Parameters: hGIPR 0.5% hP, CreLuc reporter gene assay, 0.5% human plasma
Starred links: 1 amine or outer side, 2 acyl side, 3 side chain; linkers in the order of their positions; H or OH if unused. Non-standard residues stand in square brackets, D forms with d. Groups on a side chain read outwards from the residue. *: point of attachment. C20 diacid = O=C(O)CCCCCCCCCCCCCCCCCCC(=O)*; γGlu = O=C(O)[C@H](CCC(=O)[*:2])N[*:1]; εLys = N[C@@H](CCCCN[*:1])C(=O)[*:2]; Aib = CC(C)(N)C(=O)O
Observation Type: pEC50
Scale: pEC50 equals -log10([C]), with [C] in mol/L.

Kindly note the recorded pEC50 for H-Y[Aib]EGTFTSDLSI[Aib]LEKQAQ[Aib]AFVEWLIK([εLys-γGlu-γGlu-γGlu-γGlu-γGlu-γGlu-C20 diacid])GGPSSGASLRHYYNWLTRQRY-NH2 [Compound 172] , which is 9.68
